Target Or System: BCRP (Homo sapiens, UniProt Q9UNQ0)
Sequence (Q9UNQ0 1-655): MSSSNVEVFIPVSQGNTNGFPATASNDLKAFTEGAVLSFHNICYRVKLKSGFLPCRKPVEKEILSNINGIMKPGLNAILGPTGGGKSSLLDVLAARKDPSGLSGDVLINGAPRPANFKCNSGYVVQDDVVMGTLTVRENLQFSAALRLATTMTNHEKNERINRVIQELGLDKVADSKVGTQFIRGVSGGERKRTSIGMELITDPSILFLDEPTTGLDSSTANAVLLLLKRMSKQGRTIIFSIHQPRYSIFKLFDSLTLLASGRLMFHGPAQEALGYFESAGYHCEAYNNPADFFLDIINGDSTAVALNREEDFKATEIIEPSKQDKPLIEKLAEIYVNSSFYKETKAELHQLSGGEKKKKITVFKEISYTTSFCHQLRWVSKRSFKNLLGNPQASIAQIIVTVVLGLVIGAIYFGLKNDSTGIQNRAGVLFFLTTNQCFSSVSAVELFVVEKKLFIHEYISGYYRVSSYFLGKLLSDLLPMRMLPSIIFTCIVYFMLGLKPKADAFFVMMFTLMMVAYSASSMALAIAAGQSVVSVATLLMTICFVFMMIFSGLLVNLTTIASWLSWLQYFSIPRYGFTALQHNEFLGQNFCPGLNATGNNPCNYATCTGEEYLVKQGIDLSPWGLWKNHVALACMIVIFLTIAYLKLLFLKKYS
Assay Text: BCRP substrate assessment, BCRP-MDCK monolayers
Format: in vitro ADME
Measurement Setup: dog, pH 7.4, BCRP-MDCK; Cladribine; A-to-B; read-out: Papp AVG
Assay Endpoint: Papp A→B at 120 min
Hi, when you answer, please include the unit after the number. Thanks!

Ask: I have this molecule here, Nc1nc(Cl)nc2c1ncn2[C@H]1C[C@H](O)[C@@H](CO)O1 [Cladribine, cladribine] , and I need its recorded Papp A→B at 120 min.
Reply: 0.211 ×10⁻⁶ cm/s
